biological target: epidermal growth factor acceptor-tyrosinekinase complex (Homo sapiens, UniProt P00533); construct: endogenous in cells; host or cells: A-431 (membrane specimen, not solubilized); experiment: Tyrosinekinase inhibitory activity (A-431 membrane specimen, EGF-stimulated, [γ-32P]ATP); format: biochemical, human (A-431 cell line derived from human cancerous cell); details: 10 μM; read-out: Inhibition rate (tyrosinekinase)
Sequence (P00533 25-1210): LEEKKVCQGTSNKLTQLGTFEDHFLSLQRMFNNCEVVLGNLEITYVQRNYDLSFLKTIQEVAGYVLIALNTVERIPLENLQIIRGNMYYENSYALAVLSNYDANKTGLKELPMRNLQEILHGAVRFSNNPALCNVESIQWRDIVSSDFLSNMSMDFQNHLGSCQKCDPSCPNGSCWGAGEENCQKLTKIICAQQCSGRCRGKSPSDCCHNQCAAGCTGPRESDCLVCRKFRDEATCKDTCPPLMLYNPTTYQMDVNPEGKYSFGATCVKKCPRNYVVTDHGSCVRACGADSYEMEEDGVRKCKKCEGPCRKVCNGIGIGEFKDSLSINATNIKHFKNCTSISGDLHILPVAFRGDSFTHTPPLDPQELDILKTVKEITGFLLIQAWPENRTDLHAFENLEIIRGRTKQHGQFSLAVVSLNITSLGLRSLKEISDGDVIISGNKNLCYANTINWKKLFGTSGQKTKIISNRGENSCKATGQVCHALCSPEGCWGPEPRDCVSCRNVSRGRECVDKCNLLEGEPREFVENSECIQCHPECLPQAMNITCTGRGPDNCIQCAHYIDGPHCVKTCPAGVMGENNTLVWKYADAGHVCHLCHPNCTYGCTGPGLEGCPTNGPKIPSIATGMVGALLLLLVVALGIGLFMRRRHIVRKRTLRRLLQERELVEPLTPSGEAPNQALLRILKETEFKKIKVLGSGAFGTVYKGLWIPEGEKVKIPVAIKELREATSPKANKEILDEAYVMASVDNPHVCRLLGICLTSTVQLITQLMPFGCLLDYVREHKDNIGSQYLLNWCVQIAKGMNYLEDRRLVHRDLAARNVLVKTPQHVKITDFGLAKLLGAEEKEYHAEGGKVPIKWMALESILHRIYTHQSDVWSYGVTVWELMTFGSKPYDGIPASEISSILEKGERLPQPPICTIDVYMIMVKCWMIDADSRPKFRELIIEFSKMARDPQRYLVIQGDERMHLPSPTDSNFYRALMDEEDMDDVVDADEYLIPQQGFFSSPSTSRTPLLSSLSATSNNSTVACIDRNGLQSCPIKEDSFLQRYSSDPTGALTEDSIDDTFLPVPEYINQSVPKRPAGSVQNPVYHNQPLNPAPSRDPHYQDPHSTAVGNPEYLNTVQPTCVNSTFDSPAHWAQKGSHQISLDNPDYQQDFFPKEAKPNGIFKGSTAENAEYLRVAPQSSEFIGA
Sequence (P01132 977-1029 partner limits assumed): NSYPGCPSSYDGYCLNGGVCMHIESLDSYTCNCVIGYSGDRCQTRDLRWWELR
Recorded inhibition at 10 µM values for a group of molecules are listed next.
Value and unit, in that order.

CCCCOc1cc(C=C2C(=O)NN(c3ccccc3)C2=O)cc(CSc2ccccc2)c1O
100%
CCOC(=O)C(=Cc1cc(CSc2ccccc2)c(O)c(OCC)c1)S(C)(=O)=O
64%
CCOc1cc(C=C(C#N)C(N)=O)cc(CSc2cccc(Cl)c2)c1O
54%
CCOc1cc(C=C(C#N)C(N)=O)cc(CSc2ccccc2OC)c1O
77%

Log: epidermal growth factor acceptor-tyrosinekinase complex (Homo sapiens, UniProt P00533), molecule `CCOc1cc(C=C(C#N)C(N)=O)cc(CSc2ccccc2)c1OC(C)=O` , inhibition at 10 µM = 36%
